Catalogue of growth readings, one per entry.
# System: PC-3 prostate
# Method: NCI-60 one-dose screen, 48 h (100 = growth as untreated, 0 = no growth, -100 = all killed)
# Measurement conditions: 10 µM unless noted
Compounds without any hit were thinned out: in the full panel of roughly 83,000, 20% have a hit.
Metric: growth (%)

1) Nc1nc(N)c2c(n1)NC(c1ccc(C(F)(F)F)cc1)CC(c1ccc(Nc3nc(NCCO)nc(N4CCOCC4)n3)cc1)=N2 (configuration not stated) :: 49.2
2) COc1ccc(Cn2cc3c(c2-c2cc(OC)c(OC)c(OC)c2)CCc2c(CN4CCCC4)noc2-3)cc1 :: 29
3) Nc1nc(Nc2ccccc2SSc2ccccc2Nc2nc(N)nc(-c3ccccc3)n2)nc(-c2ccccc2)n1 :: 42.9
4) O=C1C(c2ccccc2)=C(N2CCc3ccccc32)OC1(Cl)Cl :: 69.5
5) COc1cc(OC)c(/C=C/S(=O)(=O)Cc2ccc(OC)c(NC(=O)CCC(=O)NO)c2)c(OC)c1 :: 28.7
6) Nc1ncc(-c2ccc3ncnc(N4CCc5cc(F)c(F)cc54)c3c2)cn1 :: 17.7
7) COc1ccc(C2CC(c3cccc(Nc4nc(Cl)nc5cc(OC)c(OC)cc45)c3)=Nc3c(N)nc(N)nc3N2)cc1 (configuration not stated) :: 62.7
8) CCCCCc1ccc(S(=O)(=O)Nc2cccc(-c3csc(NC(=O)CCCCCN4CCN(CCO)CC4)n3)c2)cc1 :: 68.1
9) Cc1ccc(-n2c(/C=C3\C(=O)Nc4ccccc43)ccc2CO)cc1 :: 66.5
10) CCOC(=O)c1c(Nc2ccccc2)nn2c(-c3ccc(Cl)cc3)ccnc12 :: 80.5
11) NC(N)=Nc1ccc(Oc2ccc(Nc3ccc(Cl)c(C(F)(F)F)c3)cc2)cc1 :: 32.5
12) CN1CCN(Cc2ccc(NC(=O)c3cncc(C#Cc4cnc5ccc(OCC6(C)COC6)nn45)c3)cc2C(F)(F)F)CC1 :: -69
13) COc1cc(OC)cc(C(=O)Nc2sc3c(c2C(N)=O)CCC(=O)C3)c1 :: 8.96
14) C=CCn1c(SCC(=O)Nc2ccc(C(=O)/C=C/c3cc(OC)c(OC)c(OC)c3)cc2)nnc1-c1c[nH]c2ccccc12 :: 40.6
15) Cc1ccc(C(=O)NN2C(=O)/C(=C/C=C/c3ccco3)SC2=S)cc1 :: 92.2
16) O=c1[nH]c(Sc2sc3ccc(Cl)cc3c2CBr)nc(=S)[nH]1 :: 26.4
17) CC1=NC2=NN3C(=NN2C(c2ccccc2)=C1)N=NC(c1ccc(Br)cc1)=C3c1ccc(Br)cc1 :: 97.1
18) CCN1CCN(Cc2ccc(C(=O)Nc3ccc(C)c(Oc4ccc(-c5[nH]nc6ncnc(N)c56)cc4)c3)cc2C(F)(F)F)CC1 :: 70.7
19) CNCc1cccc2c1OCCCCCCC(C)(O)CC(C)(C)S(=O)(=O)c1ccc(cc1)-c1cnc(N)c(n1)C(=O)N2 (configuration not stated) :: 16
20) COc1ccc(C(=O)c2c(N)c(C#N)cn2-c2ccccc2OC)cc1 :: 36.2
21) O=C(CSc1nnc(-c2ccc(Cl)cc2)n1-c1ccccc1)Nc1cccc(Cl)c1 :: 75.5
22) CS(=O)(=O)Nc1cc(-c2ccc3ncc(C#N)c(NCc4ccccc4O)c3c2)cnc1Cl :: 9.68
23) COc1ccc(/C=C(/C)c2ccc3ccc(OC)cc3[o+]2)c(O)c1 :: 41.7
24) O=C(CN1CCN(c2cc(=O)n(-c3ccccc3)c3ccccc23)CC1)Nc1ccc(F)cc1 :: 64.6
25) C[C@H]1c2[nH]c3ccccc3c2C[C@H]2C(=O)N(CCCCCCC(=O)NO)CC(=O)N21 :: 77.7
26) CCOC(=O)C(=O)/C(=C\c1ccc(Cl)cc1)C(=O)N1C(=S)NC(=O)C1CC(C)C (configuration not stated) :: 93.6
27) COc1ccc(-c2nc3cc(Cl)c(Cl)cc3n2CC(=O)N=Nc2c(O)[nH]c3ccc(OC)cc23)cc1 :: 63.8
28) O=C(Nc1ccc2c(ccn2Cc2ccccn2)c1)c1ccnnc1 :: 91.4
29) Nc1nc(-c2cccc([N+](=O)[O-])c2)c(N=Nc2cccc([N+](=O)[O-])c2)s1 :: 74.7
30) Cn1ccnc1C(=O)/C=C/c1ccc(CNC(=O)c2c(F)c(F)c(F)c(F)c2F)cc1 :: 35.2
31) O=C(Cn1c(-c2ccccc2)nc2cc(Cl)c(Cl)cc21)N=Nc1c(O)[nH]c2ccc(Cl)cc12 :: 70.8
32) O=C(NCc1ncc[nH]1)c1ccc(-c2nc3ccc4[nH]ncc4c3c3c2CCCC3)cc1 :: 2.66
33) c1cc(-c2nc3ccc4[nH]ncc4c3c3c2CCCC3)[nH]n1 :: 57.1
34) NS(=O)(=O)c1ccc(Nc2nc(Nc3ccccc3)nc3nnc(SCC(=O)NC4CCCCC4)n23)cc1 :: 98.5
35) CCN(CC)c1ccc2c(c1)Oc1nc(N)c(C#N)c(N)c1C2Sc1ccc(C)cc1 (configuration not stated) :: -88.5
36) COc1ccc(S(=O)(=O)NCCCNc2nccc(-c3cn(C(C)(C)C)nc3-c3ccc(Cl)c(OC)c3)n2)cc1 :: 58.3
37) N/C(=N\C(N)=N\c1nc2ccccc2s1)c1ccc(C(F)(F)F)cc1 :: 8.57

----------
# System: MOLT-4 leukemia
# Method: NCI-60 one-dose screen, 48 h (100 = growth as untreated, 0 = no growth, -100 = all killed)
# Measurement conditions: 10 µM unless noted
The panel holds about 83,000 compounds, 20% with a hit somewhere; the sample as a whole holds those more often.
Metric: growth (%)

1. COc1cc(-c2nn(C(C)(C)C)cc2-c2ccnc(NCCCNS(=O)(=O)c3ccc(Cl)cc3)n2)ccc1Cl :: 31
2. C=C(C)[C@@H]1CC[C@]2(COC)CC[C@]3(C)[C@H](CC[C@@H]4[C@@]5(C)CCCNC(C)(C)[C@@H]5CC[C@]43C)[C@@H]12 :: -32.3
3. c1ccc(C(c2nc3ncncc3[nH]2)N2CSc3nc4ccccc4n3C2)cc1 (centres undefined) :: 104
4. CC1(C)CC[C@]2(CN)CC[C@]3(C)C(=CC[C@@H]4[C@@]5(C)CCCNC(C)(C)[C@@H]5CC[C@]43C)[C@H]2C1 :: 82.8

----------
# Tested on: UO-31 renal
# Method: NCI-60 one-dose screen, 48 h
# Measurement conditions: 10 µM unless noted
About 83,000 compounds went through this panel and 20% of them were active in at least one assay; those are over-represented in the sample as a whole. Calls of active or inactive are those of the source. The calls were made as follows: active = growth percent below 10; inactive = the rest.
Outcome codes: y (active), n (inactive)

1) O=C(CN1CCN(c2cc(=O)n(-c3ccccc3)c3ccccc23)CC1)Nc1ccc(F)cc1 :: n
2) O=C(/C=C/c1ccc(F)cc1)c1ccc(O)cc1 :: n
3) Cc1ccc2sc3c(c2c1)OC(N)=C(C#N)C3c1ccc(Cl)cc1 (centres undefined) :: n
4) O=S(=O)(NCCNc1nccc(-n2cnc3ccccc32)n1)c1ccc(C(F)(F)F)cc1 :: n
5) FC(F)(F)c1cc(Nc2cccc(Oc3ccc(NC4=NCCN4)nc3)c2)ccc1Cl :: n
6) O=[N+]([O-])c1cc(/C=N/Nc2nc(N/N=C/c3ccc(Cl)c([N+](=O)[O-])c3)nc(N3CCCCC3)n2)ccc1Cl :: n
7) O=C1[C@H]2Cc3c([nH]c4ccccc34)[C@@H](c3ccc(Cl)cc3)N2C(=O)CN1C1CCN(Cc2ccccc2)CC1 :: n
8) COc1cc2nc(Cl)nc(Nc3cccc(C4=Nc5c(N)nc(N)nc5NC(c5ccc6c(c5)OCO6)C4)c3)c2cc1OC (centres undefined) :: n
9) CCNC(=O)Oc1ccc(/C(=C(/C)c2ccccc2)c2ccc(OCCN3CCCCCC3)cc2)cc1 :: y
10) CC1=NC2=NN3C(=NN2C(c2ccccc2)=C1)N=NC(c1ccc(Br)cc1)=C3c1ccc(Br)cc1 :: n
11) CN1CCN(Cc2ccc(NC(=O)c3cncc(C#Cc4cnc5ccc(OCC6(C)COC6)nn45)c3)cc2C(F)(F)F)CC1 :: y
12) COc1ccc(/C=C(\C#N)C(=O)N2c3ccccc3Sc3ccc(SC)cc32)cc1F :: n
13) CC(=O)C1=C(C)NC(NN)=NC1c1cccc(Cl)c1 (centres undefined) :: n
14) O=C(Nc1ccc(F)c(F)c1)c1cc(-c2ccc(F)cc2F)ccc1O :: y
15) COc1ccc(C2CC(c3cccc(Nc4nc(Cl)nc5cc(OC)c(OC)cc45)c3)=Nc3c(N)nc(N)nc3N2)cc1 (centres undefined) :: n
16) COc1cc(OC)c(S(N)(=O)=O)cc1C(=O)/C=C/c1ccc(C)cc1 :: n
17) C#CC(=O)N(c1ccc(OC)cc1OC)C(C(=O)NCC(=O)OCC)c1cccs1 (centres undefined) :: y
18) C#C[C@]1(O)CC[C@H]2[C@@H]3CC=C4c5sc(-c6cccc(O)c6)nc5CC[C@]4(C)[C@H]3CC[C@@]21C :: y
19) Cc1noc(C)c1CSc1nc2ccccc2n1-c1ccccc1 :: n

These entries and their values trace back to PubChem BioAssay (NCI).
